Source: ChEMBL document CHEMBL1134855

compounds and their reported Glyceamia evolution
Test system: Rattus norvegicus
Method Notes: Evolution of glycemia 2 hr after first administration at the dose of 20 mg/kg in rat
Type: functional
Write your answer as a measured quantity: the number, then the unit.

Some solved entries appear below for comparison.
Cn1cc(C(=O)O)c(=O)[nH]1 | 0%
COc1nn(CC=C(C)C)cc1C(=O)O | 3%
C=CCn1cc(C(=O)O)c(OC)n1 | 3%
CCOC(=O)Cn1cc(C(=O)O)c(OCc2ccccc2)n1 | -8%

Request: Field request: Glyceamia evolution | item: O=C(O)c1c[nH]nc1O
Result: -12%

---

System: Rattus norvegicus
Method Notes: Evolution of glycemia 2 hr after first administration at the dose of 20 mg/kg in rat
Assay type: functional
Measurement Label: Glyceamia evolution (%)
Please give a number only; it is taken to be in %.

O=C(O)c1cn(Cc2ccccc2)nc1OCc1ccccc1 | -6
COc1nn(C)cc1C(=O)O | -7

Request: Which Glyceamia evolution is reported for this compound? N#Cc1ccccc1-c1ccc(Cn2cc(C(=O)O)c(OCc3ccccc3)n2)cc1
Result: -5

Request: Tell me the measured Glyceamia evolution of O=C(O)c1c[nH]nc1OCc1ccccc1 , please.
Result: 1

Request: Give its Glyceamia evolution value. Item: COc1nn(Cc2ccc(-c3ccccc3C#N)cc2)cc1C(=O)O
Result: -5

Request: Reported Glyceamia evolution for N#Cc1ccccc1-c1ccc(COc2n[nH]cc2C(=O)O)cc1 : what is it?
Result: -7

Request: Requested field: Glyceamia evolution. Item: Cn1cc(C(=O)O)c(OCc2ccccc2)n1
Result: -4

Request: Dear colleague, I am looking for the recorded Glyceamia evolution of the following compound: O=C(CCn1cc(C(=O)O)c(OCc2ccccc2)n1)Nc1ccc(Cl)cc1
Result: -16

Request: # lookup: Glyceamia evolution of O=C(O)c1cn(Cc2nn[nH]n2)nc1OCc1ccccc1
Result: 0

Request: Looking for the measured Glyceamia evolution of COC(=O)CCn1cc(C(=O)O)c(OCc2ccccc2)n1 , can you help?
Result: -3

Request: Request the reported Glyceamia evolution associated with CCOC(=O)CCCn1cc(C(=O)O)c(OCc2ccccc2)n1
Result: -1

Request: Fill in: Glyceamia evolution of COc1[nH]ncc1C(=O)O is ___
Result: -19
